Assay: serotonin-gated TRPC4 signal block – cell-based, second counter screen, HEK293 TRPC4/5HT1a, Fluo-4, counter-screen for TRPC4 inhibitor project, confirmation (AID 434978)
Settings: Fluo-4 calcium flux, at 10 µM, serotonin added to trigger calcium flux; active compounds read high
Activity calls are given as the source filed them.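 How the source made its calls: active means primary screen active whose calcium signal fell more than 3 SD beyond the full-serotonin control mean in both duplicate plates; inactive means the rest.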
Quantity measured: inhibition

Cc1n[nH]c(C)c1CCCCOc1ccccc1F ... 28.3% (active)
CCn1c(C)nc2cc(C(=O)N/N=C/c3cccc(O)c3O)ccc21 ... inactive
S=C(NCCc1ccccn1)NC1CCCCC1 ... inactive
O=C(COC(=O)c1c(Cl)cccc1Cl)Nc1ccccc1Br ... 29.5% (active)
Cc1cc2oc(C(=O)N(Cc3ccco3)C3CCS(=O)(=O)C3)cc(=O)c2cc1Cl (configuration not stated) ... inactive

So what's the measured inhibition for this one? COc1ccc(CCN2CCCC(CN(C)C(=O)c3ccoc3)C2)cc1 (configuration not stated)
inactive

So what's the measured inhibition for this one? O=C(Nc1ccccc1N1CCN(C(=O)c2ccccc2)CC1)c1ccc(Br)o1
31.6% (active)

So what's the measured inhibition for this one? COCCNc1c2c(nc3ccccc13)CCC2
11.8% (active)
